src = patent US20180237497A1

# TARGET OF ASSAY: T1, human IGF2^1-67 (mature insulin-like growth factor 2) (human, UniProt P01344 25-91, biotinylated (site not stated) where immobilised on the chip (Tables 1-4))
# T1 construct: mature; also called mature IGF2; biotinylated IGF2
# T1 sequence (P01344 25-91): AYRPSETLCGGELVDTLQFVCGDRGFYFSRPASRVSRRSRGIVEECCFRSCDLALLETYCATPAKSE
# ASSAY REMARKS: SPR kinetic, biotin-IGF2 on chip
ENDPOINT NAME: koff (s⁻¹)

1. domain 11^AB3 P1597H (receptor, See m5; also called AB3 + 62B (FG-P1597H)) MKSNEHDDCQVTNPSTGHLFDLSSLSGRAGFTAAYSKSGVVYMSICGENENCPPGVGACFGQTRISVGKANKRLRYVDQVLQLVYKDGSHCPSKSGLSYKSVISFVCRPEAGPTNRPMLISLDKQTCTLFFSWHTPLACEQATECSV    0.013
2. domain 11^WT + 27G (HI-NMAL) (receptor, See m5; Protein quality poor) MKSNEHDDCQVTNPSTGHLFDLSSLSGRAGFTAAYSEKGLVYMSICGENENCPPGVGACFGQTRISVGKANKRLRYVDQVLQLVYKDGSPCPSKSGLSYKSVISFVCRPEAGPTNRPMLISLNMALCTLFFSWHTPLACEQATECSV    0.25
